Data provenance is PubChem BioAssay.

Assay: small-molecule microarray binders of probe aDKK1, primary screen, biochemical, biotinylated probe, 635/667 nm fluorescence (AID 1099);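 note: score merges 667nm spot fluorescence with signal to noise across triplicate slides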
Conditions: higher = more signal
Assign T to entries whose composite z-score meets or exceeds -0.08; assign F to the rest.

Observe how each entry below is paired with its result.
Compound: COCC(=C=CC[C@H](O)c1ccccc1OCCO)C[C@H](O)c1cc(Cl)cc(Cl)c1O
Answer label: F

Compound: COc1ccc([Si](C)(C)[C@H]2[C@H](CC(=O)N3CCC[C@H]3CO)O[C@@]3(C(=O)N(Cc4cccc(N5C(=O)c6cccc7cccc5c67)c4)c4ccccc43)[C@@H]2C)cc1
Answer label: F

Req: Tell me whether composite z-score is at least -0.08 here: `COCCOC(=O)N1C(=O)[C@@]2(c3ccccc31)[C@H](c1ccc(O)cc1)N1[C@H](c3ccccc3)[C@H](c3ccccc3)OC(=O)[C@H]1[C@@H]2C(=O)NC[C@H](O)c1ccccc1`
Resp: F

Req: Item Cc1ccc(C(C)CC(O)C2C=CC3C(=O)N(C)C(=O)C3N2NC(=O)OC(C)(C)C)o1 (configuration not stated) with composite z-score of -0.08 or above?
Resp: T

----------
Assay: anti-His antibody binders, primary screen, artefact control for SMM control protein annotation, biochemical, small-molecule microarray, 635 nm fluorescence (AID 1128);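 note: score merges feature fluorescence with signal-to-noise for each printed compound spot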
Conditions: anti-His Alexa647 antibody binding, higher = more signal
Reported property: composite z-score
Response field accepts a number only; no unit should be typed.

The examples below pair each entry with its known result.
Chem smiles: COCCOC(=O)N1C(=O)[C@@]2(c3cc(C#CC4(O)CCCCCC4)ccc31)[C@H](c1ccc(O)cc1)N1[C@H](c3ccccc3)[C@H](c3ccccc3)OC(=O)[C@H]1[C@@H]2C(=O)Nc1nc2ccccc2s1
composite z-score: 0.84
--
Chem smiles: COc1cc2c(cc1OC)CN(C(=O)[C@H]1[C@@H]3C(=O)O[C@@H](c4ccccc4)[C@@H](c4ccccc4)N3[C@@H](c3ccc(O)cc3)[C@]13C(=O)Nc1ccc(C#CCNC(N)=O)cc13)CC2
composite z-score: -0.327

Req: Form field: reported composite z-score of `C=CCN1C(=O)[C@]2(O[C@H](CCO)[C@@H]([Si](C)(C)c3ccc(OC)cc3)[C@@H]2C)c2cc(N3C(=O)c4cccc5cccc3c45)ccc21`
Resp: 0.987

Req: For `COCCOC(=O)N1C(=O)[C@@]2(c3cc(C#CC4=CCCCC4)ccc31)[C@H](C(=O)Nc1nc3ccccc3s1)[C@H]1C(=O)O[C@H](c3ccccc3)[C@H](c3ccccc3)N1[C@@H]2c1ccccc1OCCO` , what is its reported composite z-score?
Resp: 0.772

Req: Return reported composite z-score; argument: `C=CCNC(=O)[C@H]1[C@@H]2C(=O)O[C@@H](c3ccccc3)[C@@H](c3ccccc3)N2[C@@H](c2ccc(OCCO)cc2)[C@]12C(=O)N(C(=O)OCCOC)c1ccccc12`
Resp: 2.75

----------
Test: small-molecule microarray binders of probe aShh, primary screen, biochemical, biotinylated probe, 635/667 nm fluorescence (AID 1114);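 note: probe is biotin-labelled aShh protein from a stem cell growth factor screen; measures binding of labelled protein to compounds printed on the slide; score merges feature fluorescence at 667 nm with signal-to-noise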
Details: higher = more signal
composite z-score: recorded values
No unit in the answer, only the number.

Compound: CN1C(=O)C2C=CC(C(O)c3ccccc3)N(Nc3ccccc3)C2C1=O (stereo unspecified)
composite z-score: -0.0813
//
Compound: COCCOC(=O)N1C(=O)[C@@]2(c3cc(C#CCNC(N)=O)ccc31)[C@H](C(=O)NC[C@H](O)c1ccccc1)[C@H]1C(=O)O[C@H](c3ccccc3)[C@H](c3ccccc3)N1[C@@H]2c1ccccc1OCCO
composite z-score: -0.0375
//
Compound: COC(=O)C(CC#Cc1ccc2c(c1)[C@]1(C(=O)N2)[C@H](C(=O)O)[C@H]2C(=O)O[C@H](c3ccccc3)[C@H](c3ccccc3)N2[C@@H]1c1ccc(O)cc1)C(=O)OC
composite z-score: -0.366
//
Compound: CN(C)C(=O)[C@]1(Cc2ccccc2N=[N+]=[N-])N=C(c2ccc(OCCCO)cc2)O[C@@H]1c1ccccc1
composite z-score: -0.116
//
Compound: CC(C)(C)OC(=O)CC[C@]1(C(=O)O)N=C(c2ccc(OCCCO)cc2)O[C@H]1c1ccccc1N=[N+]=[N-]
composite z-score: 0.699
//
Compound: COc1cc2c(cc1OC)CN(C(=O)[C@@H]1[C@H]3C(=O)O[C@H](c4ccccc4)[C@H](c4ccccc4)N3[C@H](c3ccc(O)cc3)[C@@]13C(=O)Nc1ccc(C#CC4(O)CCCCCC4)cc13)CC2
composite z-score: -0.0005
//
Compound: O=C1O[C@@H](c2ccccc2)[C@@H](c2ccccc2)N2[C@@H](c3ccccc3OCCO)[C@]3(C(=O)Nc4ccc(C#CC5=CCCCC5)cc43)[C@@H](C(=O)Nc3nc4ccccc4s3)[C@H]12
composite z-score: 0.356
//
Compound: CC(C)(C)OC(=O)CC[C@]12N=C(c3ccc(OCCCO)cc3)O[C@H]1c1ccccc1N(CCS(=O)(=O)c1ccccc1)C2=O
composite z-score: 0.287
//
Compound: C=CCOC(=O)[C@@H]1[C@H]2C(=O)O[C@H](c3ccccc3)[C@H](c3ccccc3)N2[C@H](c2ccc(OCCOC(=O)[C@@H]3C[C@@H]4C(=O)N[C@@H](CCCC[N+](C)(C)C)C(=O)N4[C@@H]3c3cccc(OCCO)c3)cc2)[C@@]12C(=O)Nc1ccc(I)cc12
composite z-score: -0.0146
//
Compound: COC(=O)c1c(CC[C@@H](CO)NC(=O)N[C@@H](C)Cn2cc(C3(O)CCCCC3)nn2)oc(C(C)=O)c1C(=O)OC
composite z-score: 0.0328

Attention now shifts to the item below.
Req: composite z-score for COc1ccc(C(O)C2C=CC3C(=O)N(c4ccccc4)C(=O)C3N2Nc2ccccc2F)cc1OCc1ccccc1 (stereo unspecified) ?
Resp: 0.232

----------
Overview of reported composite z-score across a group of compounds:
System: Inhibin beta A chain (activin A)
Experiment: INHBA (activin A) binders on microarrays, primary screen, biochemical, small-molecule microarray, 635 nm fluorescence scan (AID 1107);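 note: mouse activin A protein probed at 4.33 µg/mL on printed slides; score merges bound-protein fluorescence near 667 nm with spot signal-to-noise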
Details: small-molecule microarray binding, higher = more signal
Lab note: write the figure by itself, no unit.

Record excerpt, results attached:
Compound: CN1C(=O)C2C=CC(C(O)c3cccs3)N(Nc3ccccc3)C2C1=O (stereo not given)
composite z-score: 0.693
--
Compound: C#CCNC(=O)[C@H](Cc1ccccc1)NC(=O)CCC(=O)O
composite z-score: 0.735
--
Compound: COC(=O)[C@@]1(Cc2ccccc2)[C@H]2c3cc(C(=O)N(C)C)n(CCSCCO)c3C[C@H]2CN1C(=O)c1ccccc1
composite z-score: 0.442
--
Compound: CN1C(=O)C2C=CC(C(O)c3ccccc3)N(Nc3ccccc3)C2C1=O (stereo not given)
composite z-score: 0.918

# context switch: different compound, same composite z-score
Req: Requested field: composite z-score. Item: `COCCOC(=O)N1C(=O)[C@@]2(c3ccccc31)[C@H](c1ccc(O)cc1)N1[C@H](c3ccccc3)[C@H](c3ccccc3)OC(=O)[C@H]1[C@@H]2C(=O)NC[C@H](O)c1ccccc1`
Resp: -0.202

----------
Tested on: Wnt5a (protein binding on small-molecule microarray)
Assay: Wnt5a binders on small-molecule microarray, primary screen, biophysical, 635/667 nm fluorescence (AID 1142);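 note: fluorescence read at 667 nm with signal to noise per printed feature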
Details: 635 nm fluorescence, higher = more signal
Rule: composite z-score of -0.009 or more gives yes; anything lower gives no.

Molecule: C=CCOC(=O)[C@@H]1[C@H]2C(=O)O[C@H](c3ccccc3)[C@H](c3ccccc3)N2[C@H](c2ccc(OCCOC(=O)[C@@H]3C[C@@H]4C(=O)N[C@@H](Cc5ccccc5)C(=O)N4[C@@H]3c3ccc(O)cc3)cc2)[C@@]12C(=O)Nc1ccc(I)cc12
Study system: Wnt5a (protein binding on small-molecule microarray)
Answer label: yes

Req: Record CCOc1cc(C(O)C2C=CC3C(=O)N(c4ccccc4)C(=O)C3N2Nc2ccccc2)ccc1O (configuration not stated) ; criterion: composite z-score no lower than -0.009. Met?
Resp: no

Req: Decide: composite z-score of `C#CCN(CC1=CCCCC1)[C@H](c1ccccc1Br)[C@@H](O)Cc1ccccc1` >= -0.009?
Resp: no

----------
Collected z-score values appear next to each entry.
Molecular target: NADPH oxidase 5 (Homo sapiens)
Assay: NOX5-dependent H2O2 signal modulators, primary screen, NOX inhibitor project, cell-based, HEK293-NOX5, Amplex Red fluorescence (AID 1161)
Details: HEK293-NOX5, ionomycin, 45 min, higher = more signal

Previously resolved entries follow.
Compound: COc1cc2c(cc1OC)CN(C(=O)[C@H]1[C@@H]3C(=O)O[C@@H](c4ccccc4)[C@@H](c4ccccc4)N3[C@@H](c3ccc(O)cc3)[C@]13C(=O)Nc1ccc(C#CCNC(N)=O)cc13)CC2
Experimental result: 0.56

Compound: CC(C)(C)OC(=O)CC[C@@]1(C(N)=O)N=C(c2ccc(OCCCO)cc2)O[C@@H]1c1ccccc1
Experimental result: -0.0961

Compound: CC(=O)N1Cc2ccccc2C[C@@]2(COC(c3ccc(OCCCO)cc3)=N2)C1=O
Experimental result: -1.24

Compound: CCCC[C@H]1OB(O)C[C@H]2C1=C(COc1ccccc1)C[C@H]1C(=O)N(C)C(=O)[C@H]12
Experimental result: 0.224

Compound: CC1CC/C=C\[C@H]2OC34C=CCN(C(C)(C)C)C(=O)[C@H]3N(CCCCCCO)C(=O)[C@@H]4C2C(=O)O1 (some centres undefined)
Experimental result: 1.77

Req: Can you look up the measured z-score of CCCCCN1CC=CC23O[C@@H]4/C=C\CCCOC(=O)C4[C@H]2C(=O)N(C(CO)C(C)C)[C@@H]3C1=O (some centres undefined) for me?
Resp: 2.17

Req: What does the data say about its z-score? Entry: `COC(=O)[C@@]1(Cc2ccccc2)[C@H]2c3cc(C(=O)N4CCCC4)n(Cc4cccc5ccccc45)c3C[C@H]2CN1C(=O)c1ccccc1`
Resp: 1.05

Req: Reported z-score, compound [N-]=[N+]=NCc1ccccc1C[C@@]1(C(=O)NCC(O)CO)N=C(c2ccc(OCCCO)cc2)O[C@@H]1c1ccccc1N=[N+]=[N-] (some centres undefined) : ____
Resp: 0.427

Req: GET /values?readout=z-score&item= COc1ccc(C(O)C2C=CC3C(=O)N(c4ccccc4)C(=O)C3N2Nc2ccccc2F)cc1OCc1ccccc1 (centres undefined)
Resp: -1.17

Req: Quick one: z-score of `CN1C(=O)[C@]2(Cc3ccccc3)N=C(c3ccc(OCCCO)cc3)O[C@@H]2c2ccccc21` ?
Resp: -1.93

Req: Reported z-score, compound `[N-]=[N+]=NCc1ccccc1C[C@]1(C(=O)N2CCOCC2)N=C(c2ccc(OCCCO)cc2)O[C@H]1c1ccccc1N=[N+]=[N-]` : ____
Resp: -2.7

Req: Given the compound `C=CC[C@]1(C(=O)N2CCCCC2)N=C(c2ccc(OCCCO)cc2)O[C@H]1c1ccccc1` , what is its reported z-score?
Resp: -1.71

Req: Which z-score value belongs to `O=C(NCc1ccccc1)[C@@]1(Cc2ccccc2)N=C(c2ccc(OCCCO)cc2)O[C@H]1c1ccccc1` ?
Resp: 0.756

Req: What does the data say about its z-score? Entry: `Cc1ccc(S[C@]2(C(=O)NCCN3CCOCC3)CC(=O)N(Cc3ccccc3)[C@@H]2c2ccc(CO)cc2I)cc1`
Resp: 0.422

Req: Quick one: z-score of CN1C(=O)C2C=CC(C(O)C3CC=CCC3)N(NC(=O)OC(C)(C)C)C2C1=O (centres undefined) ?
Resp: -0.716

Req: Item under review: `Cc1ccc(S[C@]2(C(=O)NCCN3CCOCC3)CC(=O)N(Cc3ccccc3Cl)[C@@H]2c2ccc(CO)cc2)cc1` . Reported z-score?
Resp: -2.89

Req: GET /values?readout=z-score&item= `COCCOC(=O)N1C(=O)[C@@]2(c3cc(C#CC4=CCCCC4)ccc31)[C@H](c1ccc(O)cc1)N1[C@H](c3ccccc3)[C@H](c3ccccc3)OC(=O)[C@H]1[C@@H]2C(N)=O`
Resp: 1.03

Req: What does the data say about its z-score? Entry: `CCCCc1cn(C[C@H](Cc2ccccc2)NC(=O)N[C@H](CO)CCc2oc(C(C)=O)c(C(=O)OC)c2C(=O)OC)nn1`
Resp: -2.48

Req: Look at this compound and give its reported z-score. CS(=O)(=O)CCOC(=O)C1=CC(CCCO)=CC(c2ccc(CN3CCCC3)cc2)N(Cc2cc3c(cc2Br)OCO3)C=C1C(=O)OCCS(C)(=O)=O (centres undefined)
Resp: 0.597

Req: # get_value(readout='z-score', item= O=C1OCCC/C=C\[C@H]2OC34C=CCN(c5ccc6ccccc6c5)C(=O)[C@H]3N(CCCCCCO)C(=O)[C@@H]4C12 (some centres undefined) )
Resp: 2.26

Req: Report z-score for CC1CC/C=C\[C@H]2OC34C=CCN(c5ccc(Cl)cc5)C(=O)[C@H]3N(CCO)C(=O)[C@]4(C)C2C(=O)O1 (some centres undefined) please.
Resp: 3.16

Req: # get_value(readout='z-score', item= `COc1ccc([C@H]2OC[C@@H]3CC4(CC=CC4)C(=O)N32)cc1` )
Resp: 0.291

Req: Name the reported z-score value associated with the compound `CC(C)(C)C(=O)N[C@@H](c1ccc(Cl)cc1)[C@]1(C)C[C@H]1C1CCCCC1`
Resp: -0.0713

Req: Quick check: z-score of COCCCNC(=O)C1N=C(c2ccc(OCCCO)cc2)N(c2ccccc2)O1 (centres undefined) ?
Resp: -0.819

Req: z-score lookup needed for `CC(C)C[C@@H]1NC(=O)[C@H]2C[C@@H](C(=O)NCCCCCCN(C)C)[C@@H](c3ccc(O)cc3)N2C1=O` , thanks.
Resp: 0.0226

Req: Item `COCCOC(=O)N1C(=O)[C@@]2(c3cc(C#CCCO)ccc31)[C@H](C(=O)Nc1nc3ccccc3s1)[C@H]1C(=O)O[C@H](c3ccccc3)[C@H](c3ccccc3)N1[C@@H]2c1ccc(OCCO)cc1` has what recorded z-score?
Resp: 1.37

Req: Fill in the blank: the reported z-score of `C[C@@H]1ON(c2cccc(C(=O)OC(C)(C)C)c2)[C@H](c2ccc(Br)cc2)[C@H]1C(=O)N1C(=O)OC[C@H]1Cc1ccccc1` is ____.
Resp: -0.0305

Req: State the recorded z-score for this entry: `O=C(NCc1ccccc1)[C@@]1(CCS(=O)(=O)c2ccccc2)N=C(c2ccc(OCCCO)cc2)O[C@H]1c1ccccc1`
Resp: 1.33

Req: Given the compound `COCCOC(=O)N1C(=O)[C@@]2(c3cc(C#Cc4ccc(OC)cc4)ccc31)[C@H](c1ccccc1OCCO)N1[C@H](c3ccccc3)[C@H](c3ccccc3)OC(=O)[C@H]1[C@@H]2C(=O)N1CCN(c2ncccn2)CC1` , what is its reported z-score?
Resp: 0.882
